The values you see were collected from ChEMBL document CHEMBL1150813.

Test system: Hepatocyte
Test: Hepatoprotective activity in mouse hepatocytes assessed protection against D-galactosamine/TNFalpha-induced cell death at 50 uM administered before 30 mins of TNFalpha challenge measured after 18 hrs
Format: functional
// NB: equality with 8% counts as -1; only Activity strictly below is 1

In the record for CC(C)=CCC[C@](C)(O[C@@H]1O[C@H](CO[C@@H]2OC[C@H](O)[C@H](O)[C@H]2O)[C@@H](O)[C@H](O)[C@H]1O)[C@H]1CC[C@]2(C)[C@@H]1[C@H](O)C[C@@H]1[C@@]3(C)CC[C@H](O[C@@H]4O[C@H](CO)[C@@H](O)[C@H](O)[C@H]4O[C@@H]4O[C@H](CO)[C@@H](O)[C@H](O)[C@H]4O)C(C)(C)[C@@H]3CC[C@]12C [GINSENOSIDE RB2] , is Activity less than 8%?
1

In the record for CO[C@@](C)(CCC=C(C)C)[C@H]1CC[C@]2(C)[C@@H]1[C@H](O)C[C@@H]1[C@@]3(C)CC[C@H](O)C(C)(C)[C@@H]3[C@@H](O[C@@H]3O[C@H](CO)[C@@H](O)[C@H](O)[C@H]3O)C[C@]12C [GINSENOSIDE RH5] , is Activity less than 8%?
-1

In the record for COc1cc(C2Oc3cc([C@H]4Oc5cc(O)cc(O)c5C(=O)[C@@H]4O)ccc3OC2CO)ccc1O (stereo not given in full) , is Activity less than 8%?
-1

In the record for CC(=O)OC[C@H]1O[C@@H](O[C@H]2C[C@]3(C)[C@H](C[C@@H](O)[C@@H]4[C@@H]([C@]5(C)CC[C@@H](C(C)(C)O)O5)CC[C@]43C)[C@@]3(C)CC[C@H](O)C(C)(C)[C@H]23)[C@H](O[C@@H]2O[C@H](C)[C@@H](O)[C@H](O)[C@@H]2O)[C@@H](O)[C@@H]1O [VINA-GINSENOSIDE R1] , is Activity less than 8%?
-1

In the record for CC(C)=CCC[C@](C)(O[C@@H]1O[C@H](CO[C@@H]2O[C@H](CO)[C@@H](O)[C@H](O)[C@H]2O)[C@@H](O)[C@H](O)[C@H]1O)[C@H]1CC[C@]2(C)[C@@H]1[C@H](O)C[C@@H]1[C@@]3(C)CC[C@H](O[C@@H]4O[C@H](CO)[C@@H](O)[C@H](O)[C@H]4O[C@@H]4O[C@H](CO)[C@@H](O)[C@H](O)[C@H]4O)C(C)(C)[C@@H]3CC[C@]12C [GINSENOSIDE RB1] , is Activity less than 8%?
1

In the record for CC1(C)[C@@H](O[C@H]2O[C@H](C(=O)O)[C@@H](O)[C@H](O)[C@H]2O[C@@H]2O[C@H](C(=O)O)[C@@H](O)[C@H](O)[C@H]2O)CC[C@]2(C)[C@H]3C(=O)C=C4[C@@H]5C[C@@](C)(C(=O)O)CC[C@]5(C)CC[C@@]4(C)[C@]3(C)CC[C@@H]12 , is Activity less than 8%?
1

In the record for CC(C)=CCC[C@](C)(O[C@@H]1O[C@H](CO)[C@@H](O)[C@H](O)[C@H]1O)[C@H]1CC[C@]2(C)[C@@H]1[C@H](O)C[C@@H]1[C@@]3(C)CC[C@H](O[C@@H]4O[C@H](CO)[C@@H](O)[C@H](O)[C@H]4O[C@@H]4O[C@H](CO)[C@@H](O)[C@H](O)[C@H]4O)C(C)(C)[C@@H]3CC[C@]12C [GINSENOSIDE RD] , is Activity less than 8%?
1

In the record for CC1(C)O[C@](C)([C@H]2CC[C@]3(C)[C@@H]2[C@H](O)C[C@@H]2[C@@]4(C)CC[C@H](O)C(C)(C)[C@@H]4[C@@H](O[C@@H]4O[C@H](CO)[C@@H](O)[C@H](O)[C@H]4O)C[C@]23C)CC[C@H]1O [GINSENOSIDE R10] , is Activity less than 8%?
-1

In the record for CC(C)(O)[C@@H]1CC[C@@](C)([C@H]2CC[C@]3(C)[C@@H]2[C@H](O)C[C@@H]2[C@@]4(C)CC[C@H](O)C(C)(C)[C@@H]4[C@@H](O[C@@H]4O[C@H](CO)[C@@H](O)[C@H](O)[C@H]4O[C@@H]4OC[C@@H](O)[C@H](O)[C@H]4O)C[C@]23C)O1 [MAJONOSIDE R2] , is Activity less than 8%?
-1
